Recorded values, source PubChem BioAssay (NCI).

The following compounds are listed with their measured GI50 values.
System: HS 578T breast
MEASUREMENT_NOTES: NCI tumour cell line growth inhibition, 48 h

Use the examples below as a reference point.
COMPOUND: COc1ccc(C(=O)c2cc3c(N)c(C(=O)Nc4cccc(OC)c4)sc3nc2C)cc1
GI50: 0.546 µM

COMPOUND: O=C1/C(=C\c2ccccc2)C2OCC=C3CN4CCC56c7ccccc7N1C5C2C3CC46 (configuration not stated)
GI50: 62.5 µM

COMPOUND: Cn1cc(C2=C(c3cn(CCCCC(=N)N)c4ccccc34)C(=O)NC2=O)c2ccccc21
GI50: > 25 µM

COMPOUND: COc1cc(/C=N/NC(=O)c2ccccc2Nc2cccc(C(F)(F)F)c2)cc(OC)c1OC
GI50: 0.971 µM

COMPOUND: COc1ccc(-c2nc(C(=O)c3ccccc3)n(CC(=O)c3ccc(Cl)cc3)c2-c2ccc(OC)cc2)cc1
GI50: > 100 µM

-- ask Item "O=C(Nc1nc2ccccc2s1)c1cc(-c2ccc(F)cc2)n2nc(-c3ccccc3)cc2n1" with HS 578T breast - GI50?
-- reply 2.29 µM

-- ask Item "Cc1cc2nc3c4ccc(Br)cc4n(CCN(C)C)c3nc2cc1C" with HS 578T breast - GI50?
-- reply 2.06 µM

-- ask Item COc1ccc(C2=NC(c3ccc(Cl)cc3)C(c3ccc(Cl)cc3)N2C(=O)N2CCNC(=O)C2)c(OC(C)C)c1 (configuration not stated) with HS 578T breast - GI50?
-- reply 2.65 µM

-- ask Item "O=C(C=C=Nc1ccccc1)C(=O)N=C=Cc1ccccc1" with HS 578T breast - GI50?
-- reply 2.26 µM
